- Experimental Target: human αVβ6 (Homo sapiens, UniProt P06756+P18564)
- Sequence (P06756 31-992 limits assumed): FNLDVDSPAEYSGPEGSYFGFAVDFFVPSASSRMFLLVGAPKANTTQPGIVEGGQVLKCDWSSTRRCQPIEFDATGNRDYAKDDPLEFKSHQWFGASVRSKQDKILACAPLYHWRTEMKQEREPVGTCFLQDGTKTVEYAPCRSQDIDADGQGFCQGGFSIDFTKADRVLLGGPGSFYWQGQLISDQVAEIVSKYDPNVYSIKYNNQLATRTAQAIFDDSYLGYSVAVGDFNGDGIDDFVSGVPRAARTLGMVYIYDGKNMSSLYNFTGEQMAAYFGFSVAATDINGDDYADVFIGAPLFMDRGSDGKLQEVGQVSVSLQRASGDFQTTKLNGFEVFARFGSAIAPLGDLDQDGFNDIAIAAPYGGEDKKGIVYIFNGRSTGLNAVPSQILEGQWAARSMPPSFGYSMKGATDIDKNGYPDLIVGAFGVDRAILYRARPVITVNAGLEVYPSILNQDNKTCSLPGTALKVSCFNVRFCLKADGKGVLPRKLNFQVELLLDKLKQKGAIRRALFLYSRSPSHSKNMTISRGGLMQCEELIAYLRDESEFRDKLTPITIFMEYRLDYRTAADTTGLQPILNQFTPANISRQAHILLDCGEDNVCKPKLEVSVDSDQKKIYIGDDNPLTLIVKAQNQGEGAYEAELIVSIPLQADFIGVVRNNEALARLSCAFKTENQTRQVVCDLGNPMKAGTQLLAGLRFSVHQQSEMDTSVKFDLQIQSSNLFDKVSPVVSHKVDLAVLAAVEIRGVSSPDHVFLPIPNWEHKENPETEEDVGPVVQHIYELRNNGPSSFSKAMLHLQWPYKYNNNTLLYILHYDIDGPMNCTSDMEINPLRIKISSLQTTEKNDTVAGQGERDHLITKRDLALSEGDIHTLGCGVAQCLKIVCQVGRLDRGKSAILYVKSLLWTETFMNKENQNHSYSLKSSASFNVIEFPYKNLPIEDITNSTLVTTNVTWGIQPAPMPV
- Sequence (P18564 22-707 limits assumed): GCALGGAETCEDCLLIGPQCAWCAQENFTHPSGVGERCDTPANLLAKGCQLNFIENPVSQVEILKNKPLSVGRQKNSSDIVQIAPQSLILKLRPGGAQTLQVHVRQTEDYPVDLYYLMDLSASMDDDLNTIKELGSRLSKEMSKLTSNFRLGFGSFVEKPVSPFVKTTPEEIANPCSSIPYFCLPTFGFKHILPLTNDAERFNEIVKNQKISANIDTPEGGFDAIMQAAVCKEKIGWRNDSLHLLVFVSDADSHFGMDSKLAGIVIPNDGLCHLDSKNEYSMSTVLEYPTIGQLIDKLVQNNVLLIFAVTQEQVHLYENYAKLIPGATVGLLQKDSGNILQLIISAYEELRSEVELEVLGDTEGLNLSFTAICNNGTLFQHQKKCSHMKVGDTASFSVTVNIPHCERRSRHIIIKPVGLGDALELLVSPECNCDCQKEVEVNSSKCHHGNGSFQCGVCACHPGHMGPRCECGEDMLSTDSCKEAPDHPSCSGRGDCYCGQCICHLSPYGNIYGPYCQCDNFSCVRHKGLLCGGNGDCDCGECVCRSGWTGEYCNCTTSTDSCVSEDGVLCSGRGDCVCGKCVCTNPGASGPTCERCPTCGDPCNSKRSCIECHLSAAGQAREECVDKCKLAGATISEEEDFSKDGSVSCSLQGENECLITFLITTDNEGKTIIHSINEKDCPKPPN
- Experimental Protocol: human αVβ6 HTRF binding assay
- Condition: recombinant human αVβ6 integrin, FITC-conjugated fibronectin
Give pIC50 for every item shown.
Numbers only, as −log10 of the molar value.

Could I get pIC50 for every one of these entries?
1. CN(C)c1ccc(C(CC(=O)O)c2nc(CCCCc3ccc4c(n3)NCCC4)cs2)cn1 (single isomer, unassigned) [Example 122]
2. Cc1ncc(C(CC(=O)O)c2nc(CCCc3ccc4c(n3)NCCC4)cs2)cn1 (single isomer, unassigned) [Example 149]
3. COc1ccc(C(CC(=O)O)n2nccc2CCCc2ccc3c(n2)NCCC3)nn1 (racemic)
4. COc1ncc(C(CC(=O)O)c2nc(CCCCc3ccc4c(n3)NCCC4)cs2)cn1 (single isomer, unassigned) [Example 143]

stdout:
1. 8.46
2. 8.14
3. 5.68
4. 7.06

These data points were gathered from patent US11884661B2.
